biological target: Epidermal growth factor receptor (Homo sapiens); assay: DRUGMATRIX: Protein Tyrosine Kinase, EGF Receptor enzyme inhibition (substrate: Poly(Glu:Tyr)); assay type: cell-based, Insect cells; settings: insect cells; Not Active = under 50% inhibition at 10 µM
Sequence (P00533 whole entry): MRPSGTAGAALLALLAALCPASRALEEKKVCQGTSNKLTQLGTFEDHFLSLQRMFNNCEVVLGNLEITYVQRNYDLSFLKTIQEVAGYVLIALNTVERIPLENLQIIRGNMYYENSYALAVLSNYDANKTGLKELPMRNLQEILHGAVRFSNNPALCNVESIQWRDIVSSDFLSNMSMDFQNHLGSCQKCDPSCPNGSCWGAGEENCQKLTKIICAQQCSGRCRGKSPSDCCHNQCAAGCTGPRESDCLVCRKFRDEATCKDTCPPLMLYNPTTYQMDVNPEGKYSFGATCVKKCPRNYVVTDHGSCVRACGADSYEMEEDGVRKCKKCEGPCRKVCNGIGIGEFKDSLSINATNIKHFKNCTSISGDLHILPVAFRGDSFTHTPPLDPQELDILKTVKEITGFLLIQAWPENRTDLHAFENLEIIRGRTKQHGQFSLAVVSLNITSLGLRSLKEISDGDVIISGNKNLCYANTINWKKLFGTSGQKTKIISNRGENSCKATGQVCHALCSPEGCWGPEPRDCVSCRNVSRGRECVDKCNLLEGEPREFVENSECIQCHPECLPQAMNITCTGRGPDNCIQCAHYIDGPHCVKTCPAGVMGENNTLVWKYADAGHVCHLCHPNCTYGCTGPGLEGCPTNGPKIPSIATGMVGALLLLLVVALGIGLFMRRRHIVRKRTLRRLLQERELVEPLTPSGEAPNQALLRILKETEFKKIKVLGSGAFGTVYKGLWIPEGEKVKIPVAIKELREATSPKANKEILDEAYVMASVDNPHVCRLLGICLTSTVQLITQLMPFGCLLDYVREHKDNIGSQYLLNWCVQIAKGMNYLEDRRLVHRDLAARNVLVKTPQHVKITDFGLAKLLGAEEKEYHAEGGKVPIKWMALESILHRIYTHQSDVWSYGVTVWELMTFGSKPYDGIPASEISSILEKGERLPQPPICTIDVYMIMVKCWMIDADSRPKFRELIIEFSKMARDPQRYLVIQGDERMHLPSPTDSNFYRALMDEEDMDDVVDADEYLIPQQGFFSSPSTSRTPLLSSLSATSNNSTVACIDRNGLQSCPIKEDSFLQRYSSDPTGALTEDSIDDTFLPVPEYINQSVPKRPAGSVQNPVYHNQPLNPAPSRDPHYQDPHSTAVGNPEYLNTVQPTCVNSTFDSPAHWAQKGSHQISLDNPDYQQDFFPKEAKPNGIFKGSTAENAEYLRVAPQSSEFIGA
readout name: IC50

Examples from the recorded data:
# compound, result
measured = [
    ("CC(O)C(=O)O (stereo not given)", "Not Active"),
    ("C[C@]12CCC(=O)C[C@@H]1CC[C@@H]1[C@@H]2CC[C@]2(C)[C@@H](O)CC[C@@H]12", "Not Active"),
    ("O=C1CN(/N=C/c2ccc([N+](=O)[O-])o2)C(=O)N1", "Not Active"),
    ("CC(Cl)(Cl)Cl", "Not Active"),
]

Proceed to the following item.
Quote IC50 with test system Epidermal growth factor receptor (Homo sapiens) for `CCCCCCNC(=O)n1cc(F)c(=O)[nH]c1=O`
Not Active

====

molecular target: Sodium-dependent dopamine transporter (Homo sapiens, UniProt Q01959); experiment: DRUGMATRIX: Dopamine Transporter radioligand binding (ligand: [125I] RTI-55); format: cell membranes, CHO-K1, Membrane; conditions: cho-k1; Not Active = under 50% inhibition at 10 µM
Sequence (Q01959 whole entry): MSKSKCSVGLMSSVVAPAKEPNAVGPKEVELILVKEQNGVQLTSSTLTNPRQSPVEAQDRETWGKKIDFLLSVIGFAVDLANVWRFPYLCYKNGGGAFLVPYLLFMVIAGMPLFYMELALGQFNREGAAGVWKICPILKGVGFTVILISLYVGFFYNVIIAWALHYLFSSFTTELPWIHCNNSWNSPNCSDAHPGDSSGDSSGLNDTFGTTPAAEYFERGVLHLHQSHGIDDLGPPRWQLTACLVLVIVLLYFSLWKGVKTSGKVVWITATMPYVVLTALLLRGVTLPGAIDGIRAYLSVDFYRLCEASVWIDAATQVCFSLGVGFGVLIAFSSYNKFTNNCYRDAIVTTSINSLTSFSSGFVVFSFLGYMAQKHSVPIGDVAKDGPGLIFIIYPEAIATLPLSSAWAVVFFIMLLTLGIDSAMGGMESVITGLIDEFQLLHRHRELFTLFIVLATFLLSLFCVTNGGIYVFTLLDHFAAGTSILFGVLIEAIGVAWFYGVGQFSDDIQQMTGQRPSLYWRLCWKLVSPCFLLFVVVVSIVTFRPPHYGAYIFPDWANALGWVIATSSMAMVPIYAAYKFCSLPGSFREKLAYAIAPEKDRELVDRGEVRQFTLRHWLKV

# structure, IC50
records = [
    ("Cc1c(N)nc([C@H](CC(N)=O)NC[C@H](N)C(N)=O)nc1C(=O)N[C@H](C(=O)N[C@H](C)[C@@H](O)[C@H](C)C(=O)N[C@H](C(=O)NCCc1nc(-c2nc(C(=O)NCCC[S+](C)C)cs2)cs1)[C@@H](C)O)[C@@H](O[C@@H]1O[C@@H](CO)[C@@H](O)[C@H](O)[C@@H]1O[C@H]1O[C@H](CO)[C@@H](O)[C@H](OC(N)=O)[C@@H]1O)c1c[nH]cn1.[Br-]", "Not Active"),
    ("CCOC(=O)C1=C(C)NC(C)=C(C(=O)OCC)C1c1ccccc1/C=C/C(=O)OC(C)(C)C", "Not Active"),
]

====

target: Prostaglandin G/H synthase 1 (Homo sapiens); assay: biochemical; assay type: tissue-based, Platelet; details: platelet; also: in other assays of this panel Not Active means under 50% inhibition at 10 µM
Sequence (P23219 whole entry): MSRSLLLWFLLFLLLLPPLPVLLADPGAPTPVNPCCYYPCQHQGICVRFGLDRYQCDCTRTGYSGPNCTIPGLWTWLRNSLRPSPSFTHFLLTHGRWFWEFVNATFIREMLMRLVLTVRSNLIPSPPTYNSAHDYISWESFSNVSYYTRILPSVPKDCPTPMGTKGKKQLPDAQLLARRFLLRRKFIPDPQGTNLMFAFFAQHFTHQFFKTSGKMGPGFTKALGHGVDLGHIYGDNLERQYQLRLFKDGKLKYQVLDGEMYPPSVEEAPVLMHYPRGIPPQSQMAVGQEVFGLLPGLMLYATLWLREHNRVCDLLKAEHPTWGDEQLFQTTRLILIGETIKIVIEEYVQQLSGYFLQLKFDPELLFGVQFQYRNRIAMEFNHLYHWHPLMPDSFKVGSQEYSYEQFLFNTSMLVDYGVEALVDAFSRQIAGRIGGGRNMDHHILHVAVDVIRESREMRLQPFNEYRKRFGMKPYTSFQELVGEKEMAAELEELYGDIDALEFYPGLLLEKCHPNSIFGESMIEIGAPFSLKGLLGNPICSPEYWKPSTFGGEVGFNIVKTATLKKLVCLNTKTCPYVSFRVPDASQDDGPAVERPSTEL
readout name: Ki

Reference set, count: 4
# substance, Ki
records = [
    ("CHROMIC CHLORIDE", "Not Active"),
    ("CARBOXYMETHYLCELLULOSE", "Not Active"),
    ("LEAD(IV) ACETATE", "Not Active"),
    ("POVIDONE", "Not Active"),
]

Tell me Ki of COPPER(II) OXIDE when tested on Prostaglandin G/H synthase 1 (Homo sapiens). Also: in other assays of this panel Not Active means under 50% inhibition at 10 µM.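 Also: inhibition of COX-1 enzyme activity, with arachidonic acid supplied as substrate.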
Not Active

====

target: Cytochrome P450 1A2 (Homo sapiens); settings: bti-tn-5b1-4; also: in other assays of this panel Not Active means under 50% inhibition at 10 µM
Sequence (P05177 whole entry): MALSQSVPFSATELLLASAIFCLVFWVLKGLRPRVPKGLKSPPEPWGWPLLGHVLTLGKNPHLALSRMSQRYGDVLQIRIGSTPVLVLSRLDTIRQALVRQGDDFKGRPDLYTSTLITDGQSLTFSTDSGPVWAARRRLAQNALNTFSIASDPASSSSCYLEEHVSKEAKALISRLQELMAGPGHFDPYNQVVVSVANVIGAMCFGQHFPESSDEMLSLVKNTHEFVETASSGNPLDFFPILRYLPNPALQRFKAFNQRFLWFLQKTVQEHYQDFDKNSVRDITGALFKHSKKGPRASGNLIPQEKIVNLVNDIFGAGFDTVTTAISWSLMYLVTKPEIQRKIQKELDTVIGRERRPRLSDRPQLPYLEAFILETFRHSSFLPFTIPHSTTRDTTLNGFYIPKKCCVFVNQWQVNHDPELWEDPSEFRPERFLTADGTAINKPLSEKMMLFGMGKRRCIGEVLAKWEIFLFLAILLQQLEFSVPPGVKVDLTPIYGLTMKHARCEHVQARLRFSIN

# compound, Ki
data = [
    ("CC[C@H]1OC(=O)[C@H](C)[C@@H](O[C@H]2C[C@@](C)(OC)[C@@H](O)[C@H](C)O2)[C@H](C)[C@@H](O[C@@H]2O[C@H](C)C[C@H](N(C)C)[C@H]2O)[C@](C)(O)C[C@@H](C)C(=O)[C@H](C)[C@@H](O)[C@]1(C)O [ERYTHROMYCIN]", "Not Active"),
    ("CO[C@H]1O[C@@H]2O[C@@]3(C)CC[C@H]4[C@H](C)CC[C@@H]([C@H]1C)[C@@]24OO3", "Not Active"),
    ("O=C(O)c1cc(/N=N/c2ccc(S(=O)(=O)Nc3ccccn3)cc2)ccc1O [SULFASALAZINE]", "Not Active"),
]

This collection of values is drawn from ChEMBL document CHEMBL1909046.
